Reference source: patent US10457654B2

molecular target: hNav1.7 (Homo sapiens (Human)); experiment: Tritiated compound binding to membranes from cells expressing hNav1.7 and the β1 subunit, competitive binding (LBA, Ex. 243A); conditions: 100 pM [3H]compound, 18 h, room temperature; read-out: Nav1.7 (LBA) (Ex. 243A)
pIC50: −log10 of the molar value. Where a name gives a salt, the structure may show the parent alone.
property: pIC50

{"compound": "CN(C)[C@@H]1CCCC[C@H]1Oc1cc(F)c(S(=O)(=O)Nc2nccs2)cc1Cl [Example 8]", "property": "pIC50", "endpointResult": 5.52}
{"compound": "N[C@H]1CCCC[C@@H]1Nc1cc(F)c(S(=O)(=O)Nc2nccs2)cc1Cl [Example 1]", "property": "pIC50", "endpointResult": 6.71}
{"compound": "CN(C)[C@H]1CCCC[C@@H]1Oc1cc(F)c(S(=O)(=O)Nc2nccs2)cc1C1CC1 [Example 24]", "property": "pIC50", "endpointResult": 7.30}
{"compound": "CN[C@H]1CCCC[C@@H]1N(C)c1cc(F)c(S(=O)(=O)Nc2nccs2)cc1Cl [Example 20]", "property": "pIC50", "endpointResult": 6.68}
{"compound": "CN(C)[C@H]1CCCC[C@@H]1Nc1cc(F)c(S(=O)(=O)Nc2ncns2)cc1F [Example 13, formate]", "property": "pIC50", "endpointResult": 6.45}
{"compound": "CN(C)[C@@H]1CCC[C@H]1Oc1cc(F)c(S(=O)(=O)Nc2nccs2)cc1Cl [Example 10]", "property": "pIC50", "endpointResult": 6.26}
{"compound": "CCN(C)[C@H]1CCCC[C@@H]1Nc1cc(F)c(S(=O)(=O)Nc2nccs2)cc1Cl [Example 18]", "property": "pIC50", "endpointResult": 7.77}
{"compound": "CN[C@H]1CCCC[C@@H]1Nc1cc(F)c(S(=O)(=O)Nc2nccs2)cc1Cl [Example 3, 2,2,2-trifluoroacetate]", "property": "pIC50", "endpointResult": 7.80}
{"compound": "O=S(=O)(Nc1nccs1)c1cc(Cl)c(N[C@H]2CCCC[C@@H]2NCc2ccccc2)cc1F [Example 5, 2,2,2-trifluoroacetate]", "property": "pIC50", "endpointResult": 6.37}
{"compound": "CN(C)[C@@H]1CCCC[C@H]1Oc1cc(F)c(S(=O)(=O)Nc2nccs2)cc1C1CC1 [Example 25]", "property": "pIC50", "endpointResult": 5.13}
{"compound": "CN(C)[C@H]1CCCC[C@@H]1Nc1cc(F)c(S(=O)(=O)Nc2ncc(Cl)s2)cc1Cl [Example 26]", "property": "pIC50", "endpointResult": 7.38}
{"compound": "CN(C)[C@H]1CCCC[C@@H]1Oc1cc(F)c(S(=O)(=O)Nc2nccs2)cc1Cl [Example 7]", "property": "pIC50", "endpointResult": 7.05}
{"compound": "CN(C)[C@H]1CCCC[C@@H]1Nc1cc(F)c(S(=O)(=O)Nc2nccs2)cc1Br [Example 14]", "property": "pIC50", "endpointResult": 7.66}
{"compound": "CN(C1CC1)[C@H]1CCCC[C@@H]1Nc1cc(F)c(S(=O)(=O)Nc2nccs2)cc1Cl [Example 19]", "property": "pIC50", "endpointResult": 7.35}
{"compound": "CN(C)[C@H]1CCC[C@@H]1Oc1cc(F)c(S(=O)(=O)Nc2nccs2)cc1Cl [Example 9]", "property": "pIC50", "endpointResult": 5.52}
{"compound": "Cc1csc(NS(=O)(=O)c2cc(Cl)c(N[C@H]3CCCC[C@@H]3N(C)C)cc2F)n1 [Example 27, formate]", "property": "pIC50", "endpointResult": 6.83}

###

molecular target: hNav1.7 (Homo sapiens (Human), UniProt Q15858); test: Tritiated compound binding to membranes from cells expressing hNav1.7 and the β1 subunit, competitive binding (LBA, Ex. 243A); conditions: 100 pM [3H]compound, 18 h, room temperature; read-out: Nav1.7 LBA (Ex. 243A) IC50
Sequence (Q15858 whole entry, looked up): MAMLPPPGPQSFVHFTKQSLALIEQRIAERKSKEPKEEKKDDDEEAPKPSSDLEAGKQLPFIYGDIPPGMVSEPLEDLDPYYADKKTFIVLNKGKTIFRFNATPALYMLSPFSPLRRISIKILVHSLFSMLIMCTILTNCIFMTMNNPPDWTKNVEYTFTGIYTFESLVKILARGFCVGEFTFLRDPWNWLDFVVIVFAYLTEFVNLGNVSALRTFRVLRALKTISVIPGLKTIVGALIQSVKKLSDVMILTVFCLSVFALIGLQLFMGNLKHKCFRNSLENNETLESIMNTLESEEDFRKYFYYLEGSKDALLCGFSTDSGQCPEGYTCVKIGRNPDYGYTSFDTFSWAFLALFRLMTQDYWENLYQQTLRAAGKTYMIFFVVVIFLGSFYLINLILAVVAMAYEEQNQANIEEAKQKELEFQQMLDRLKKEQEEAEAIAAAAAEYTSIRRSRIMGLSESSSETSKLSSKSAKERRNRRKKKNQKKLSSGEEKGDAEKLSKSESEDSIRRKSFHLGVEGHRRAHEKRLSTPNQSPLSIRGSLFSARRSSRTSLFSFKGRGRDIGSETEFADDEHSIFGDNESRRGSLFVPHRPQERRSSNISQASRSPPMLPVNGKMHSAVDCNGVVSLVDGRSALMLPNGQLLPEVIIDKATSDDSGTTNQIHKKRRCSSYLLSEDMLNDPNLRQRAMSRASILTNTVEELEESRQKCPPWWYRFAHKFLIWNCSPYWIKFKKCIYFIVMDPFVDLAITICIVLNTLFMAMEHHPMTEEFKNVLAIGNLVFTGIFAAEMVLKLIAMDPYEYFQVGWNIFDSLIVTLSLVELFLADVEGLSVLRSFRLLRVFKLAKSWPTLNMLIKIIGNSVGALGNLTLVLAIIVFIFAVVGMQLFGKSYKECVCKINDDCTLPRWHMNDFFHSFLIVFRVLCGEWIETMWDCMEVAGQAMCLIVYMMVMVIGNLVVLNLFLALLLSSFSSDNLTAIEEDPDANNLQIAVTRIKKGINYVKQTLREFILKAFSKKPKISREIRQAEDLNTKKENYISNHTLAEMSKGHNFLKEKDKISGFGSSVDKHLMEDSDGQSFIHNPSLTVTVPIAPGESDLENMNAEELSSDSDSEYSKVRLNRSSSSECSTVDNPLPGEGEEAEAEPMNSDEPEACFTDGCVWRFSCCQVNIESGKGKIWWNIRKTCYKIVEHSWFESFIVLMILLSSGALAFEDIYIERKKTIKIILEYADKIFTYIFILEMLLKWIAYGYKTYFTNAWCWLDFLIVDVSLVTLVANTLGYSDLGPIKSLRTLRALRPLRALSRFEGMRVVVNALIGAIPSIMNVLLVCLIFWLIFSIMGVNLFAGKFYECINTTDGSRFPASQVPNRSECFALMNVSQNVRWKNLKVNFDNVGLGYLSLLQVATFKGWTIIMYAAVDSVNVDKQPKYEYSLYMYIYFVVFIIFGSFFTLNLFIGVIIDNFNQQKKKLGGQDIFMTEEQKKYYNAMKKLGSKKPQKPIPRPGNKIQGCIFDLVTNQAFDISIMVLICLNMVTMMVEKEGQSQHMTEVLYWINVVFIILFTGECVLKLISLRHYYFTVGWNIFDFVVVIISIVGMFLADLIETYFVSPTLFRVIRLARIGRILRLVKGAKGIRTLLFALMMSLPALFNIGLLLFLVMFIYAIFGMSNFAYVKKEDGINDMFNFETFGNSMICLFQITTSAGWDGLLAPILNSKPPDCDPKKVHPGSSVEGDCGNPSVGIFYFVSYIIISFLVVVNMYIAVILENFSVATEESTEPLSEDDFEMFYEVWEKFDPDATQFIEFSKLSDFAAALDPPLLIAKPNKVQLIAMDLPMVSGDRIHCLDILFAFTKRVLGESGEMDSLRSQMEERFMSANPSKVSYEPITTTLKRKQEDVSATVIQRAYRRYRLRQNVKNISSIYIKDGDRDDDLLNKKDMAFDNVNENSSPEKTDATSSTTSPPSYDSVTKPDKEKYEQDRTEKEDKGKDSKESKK
Sequence (Q07699 whole entry partner, looked up): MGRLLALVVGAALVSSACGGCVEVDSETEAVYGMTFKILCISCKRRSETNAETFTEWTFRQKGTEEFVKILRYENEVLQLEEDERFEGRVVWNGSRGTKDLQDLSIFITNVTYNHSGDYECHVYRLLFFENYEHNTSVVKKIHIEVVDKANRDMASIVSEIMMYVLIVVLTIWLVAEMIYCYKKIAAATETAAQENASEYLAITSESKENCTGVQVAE
Counter-ions that a name gives are not always drawn.
A collection of compounds and their measured IC50
property: IC50 (nM)

{"compound": "CN(C)[C@H]1CCCC[C@@H]1Nc1cc(F)c(S(=O)(=O)Nc2ccncn2)cc1C1CC1 [Example 69, formate]", "experimentalSystem": "hNav1.7 (Homo sapiens (Human), UniProt Q15858)", "unitSpec": "nM", "endpointResult": 296}
{"compound": "O=S(=O)(Nc1nccs1)c1cc(Cl)c(N[C@H]2CCCC[C@@H]2N2CCOCC2)cc1F", "experimentalSystem": "hNav1.7 (Homo sapiens (Human), UniProt Q15858)", "unitSpec": "nM", "endpointResult": 25.5}
{"compound": "CCN[C@H]1CCCC[C@@H]1Nc1cc(F)c(S(=O)(=O)Nc2nccs2)cc1Br [Example 52, formate]", "experimentalSystem": "hNav1.7 (Homo sapiens (Human), UniProt Q15858)", "unitSpec": "nM", "endpointResult": 8.48}
{"compound": "Cc1cnc(NS(=O)(=O)c2cc(Cl)c(N[C@H]3CCCC[C@@H]3N(C)C)cc2F)s1 [Example 40, formate]", "experimentalSystem": "hNav1.7 (Homo sapiens (Human), UniProt Q15858)", "unitSpec": "nM", "endpointResult": 880}
{"compound": "CN[C@H]1CCCC[C@@H]1Nc1cc(F)c(S(=O)(=O)Nc2cccc(F)n2)cc1Cl", "experimentalSystem": "hNav1.7 (Homo sapiens (Human), UniProt Q15858)", "unitSpec": "nM", "endpointResult": 91.7}
{"compound": "CN1CC(N(C)[C@H]2CCCC[C@@H]2Nc2cc(F)c(S(=O)(=O)Nc3nccs3)cc2Cl)C1 [Example 41, formate]", "experimentalSystem": "hNav1.7 (Homo sapiens (Human), UniProt Q15858)", "unitSpec": "nM", "endpointResult": 4.51}

###

molecular target: hNav1.7 (Homo sapiens (Human), UniProt Q15858); test: Tritiated compound binding to membranes from cells expressing hNav1.7 and the β1 subunit, modified protocol (LBA, Ex. 243B); settings: 300 pM [3H]compound, room temperature, read-out: Nav1.7 LBA (Ex. 243B) IC50
Where a name gives a salt, the structure may show the parent alone.
property: IC50 (nM)

{"compound": "CN(C)[C@H]1C[C@@H](c2cccc(C3CC3)c2)CC[C@@H]1Nc1cc(F)c(S(=O)(=O)Nc2ccncn2)cc1Cl", "property": "IC50", "endpointResult": 1.71}
{"compound": "CN(C)[C@H]1CCCC[C@@H]1Nc1cc(F)c(S(=O)(=O)Nc2cccc(F)n2)cc1C1CC1 [Example 107, formate]", "property": "IC50", "endpointResult": 137}
{"compound": "O=S(=O)(Nc1ccncn1)c1cc(Cl)c(N[C@H]2CC[C@H](C(F)(F)F)C[C@@H]2N2CCCCC2)cc1F", "property": "IC50", "endpointResult": 41.1}
{"compound": "CC(C)CC(=O)N1CC(N(C)[C@H]2CCCC[C@@H]2Nc2cc(F)c(S(=O)(=O)Nc3nccs3)cc2Cl)C1", "property": "IC50", "endpointResult": 275}
{"compound": "CN(C)[C@@H]1C[C@@H]2[C@H](C[C@H]1Nc1cc(F)c(S(=O)(=O)Nc3nccs3)cc1Cl)C2(Cl)Cl [Example 195, formate]", "property": "IC50", "endpointResult": 8.11}
{"compound": "CN(C1CNC1)[C@H]1CCCC[C@@H]1Nc1cc(F)c(S(=O)(=O)Nc2nccs2)cc1Cl [Example 39, dihydrochloride]", "property": "IC50", "endpointResult": 12.8}
{"compound": "CN(CCCF)[C@H]1CCCC[C@@H]1Nc1cc(F)c(S(=O)(=O)Nc2nccs2)cc1Cl", "property": "IC50", "endpointResult": 313}

###

A collection of molecules and their measured IC50
biological target: hNav1.7 (Homo sapiens (Human)); experiment: Tritiated compound binding to membranes from cells expressing hNav1.7 and the β1 subunit, modified protocol (LBA, Ex. 243B); conditions: 300 pM [3H]compound, room temperature, read-out: Nav1.7 LBA (Ex. 243B) IC50
Counter-ions that a name gives are not always drawn.
property: IC50 (nM)

{"molecule": "N#C[C@H]1CCN([C@H]2CCCC[C@@H]2Nc2cc(F)c(S(=O)(=O)Nc3nccs3)cc2Cl)C1 [Example 162, formate]", "experimentalSystem": "hNav1.7 (Homo sapiens (Human))", "property": "IC50", "unitSpec": "nM", "endpointResult": 248}
{"molecule": "CN(C)[C@H]1C[C@H]2[C@@H](C[C@@H]1Nc1cc(F)c(S(=O)(=O)Nc3nccs3)cc1Cl)C2(Cl)Cl [Example 196, formate]", "experimentalSystem": "hNav1.7 (Homo sapiens (Human))", "property": "IC50", "unitSpec": "nM", "endpointResult": 664}
{"molecule": "CN1CC[C@H]1C(=O)N(C)[C@H]1CCCC[C@@H]1Nc1cc(F)c(S(=O)(=O)Nc2nccs2)cc1Cl", "experimentalSystem": "hNav1.7 (Homo sapiens (Human))", "property": "IC50", "unitSpec": "nM", "endpointResult": 245}
{"molecule": "O=S(=O)(Nc1cccc(F)n1)c1cc(Cl)c(N[C@@H]2CCCC[C@H]2N2CC3CC3C2)cc1F (stereo partly shown)", "experimentalSystem": "hNav1.7 (Homo sapiens (Human))", "property": "IC50", "unitSpec": "nM", "endpointResult": 670}
